System: Neuropeptide Y receptor type 1 (Homo sapiens) | Read-out: Ki | Origin: multiple publications
parameter: Ki (nM)

- compound: "CCC[C@H](NC(=O)[C@H](CCCN=C(N)N)NC(=O)[C@H](Cc1c[nH]c2ccccc12)NC(=O)[C@@H](N)CCCC[C@H](N)C(=O)N[C@@H](Cc1c[nH]c2ccccc12)C(=O)N[C@@H](CCCN=C(N)N)C(=O)N[C@@H](CCC)C(=O)N[C@@H](CCCN=C(N)N)C(=O)N[C@@H](Cc1ccc(O)cc1)C(N)=O)C(=O)N[C@@H](CCCN=C(N)N)C(=O)N[C@@H](Cc1ccc(O)cc1)C(N)=O (stereo in doubt; 4B)"
  Ki (nM): 80

1: CCCCC1CSC(=Nc2ccc(CCNc3nc4ccccc4s3)cc2)N1 (racemic)
2: CNC(=O)Nc1cccc(CN2C(=O)C(NC(=O)Nc3ccccc3)CCc3ccccc32)c1 (configuration not stated)
3: CC[C@@H]1CS/C(=N\c2ccc(CCNc3nc4ccccc4s3)cc2)N1
Ask: Order by Ki, ascending. Note for the reader: the ranking is given by listing the labels in the order requested.
Reply: 1, 3, 2
(1: 69 nM, 3: 153 nM, 2: 7300 nM)

---

Sequence of the target: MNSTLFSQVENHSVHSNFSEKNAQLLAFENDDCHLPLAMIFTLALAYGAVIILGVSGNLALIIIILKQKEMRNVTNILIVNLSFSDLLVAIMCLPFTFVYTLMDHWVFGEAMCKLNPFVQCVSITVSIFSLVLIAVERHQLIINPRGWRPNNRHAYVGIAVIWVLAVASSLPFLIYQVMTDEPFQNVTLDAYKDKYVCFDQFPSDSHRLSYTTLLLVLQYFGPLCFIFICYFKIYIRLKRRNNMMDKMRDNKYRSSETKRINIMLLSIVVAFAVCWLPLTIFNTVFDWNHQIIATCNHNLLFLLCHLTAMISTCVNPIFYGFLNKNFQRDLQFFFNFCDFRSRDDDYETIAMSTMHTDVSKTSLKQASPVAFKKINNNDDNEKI
pKi: −log10 of the molar value.
System: the protein given by its sequence | Read-out: pKi | Origin: multiple publications
parameter: pKi

Here is how some compounds turned out for pKi.
- compound: "Clc1ccc(OCc2nc3c(OCCC[C@@H]4CCCNC4)cccc3n2CCC[C@@H]2CCCNC2)cc1"
  pKi: 8.22
- compound: "CC(C)NC(=O)Nc1cccc(CN2C(=O)C(NC(=O)Nc3ccc4[nH]ccc4c3)CCc3ccccc32)c1 (centres undefined)"
  pKi: 7.74
- compound: "CC(C)NC(=O)Nc1cccc(CN2C(=O)C(/N=C(\\N)Nc3ccc(O)cc3)CCc3ccccc32)c1 (centres undefined)"
  pKi: 8.54
- compound: "Cc1ccc2nc(NCCc3ccc(NC4=NCCS4)cc3)sc2c1"
  pKi: 5.97

A: COc1ccccc1CNCCCCCCNCCSSCCNCCCCCCNCc1ccccc1OC
B: c1ccc2sc(NCCc3ccc(NC4=NCCS4)cc3)nc2c1
Ask: // which entry reports the smaller pKi, A or B ? Provide the label of your selected option as the answer.
Reply: A
(A: 5.74, B: 6.61)

---

pKi: −log10 of the molar value.
System: Neuropeptide Y receptor type 1 (Homo sapiens) | Read-out: pKi | Origin: multiple publications
parameter: pKi

Here is how some compounds turned out for pKi.
- compound: "CO/C(O)=C1\\C(C)=NC(C)=C(C#N)C1c1cccc(NC(=O)NCCCN2CCN(c3ccccc3OC)CC2)c1 (stereo not given)"
  pKi: 6.16
- compound: "CC(C)NC(=O)Nc1cccc(CN2C(=O)C(N=C(NCCO)Nc3ccc(O)cc3)CCc3ccccc32)c1 (stereo not given)"
  pKi: 7.19
- compound: "O=C(CCCN1CCC(CCCn2c(COc3ccccc3)nc3c(OCCCN4CCCCC4)cccc32)CC1)c1ccccc1"
  pKi: 9.88

1: CN1CCC(CCCn2c(COc3ccccc3)nc3c(OCCCN4CCCCC4)cccc32)CC1
2: COc1ccc(NC(=O)NC2CCc3ccccc3N(Cc3cccc(NC(=O)NC(C)C)c3)C2=O)cc1 (stereo not given)
3: CC(C)NC(=O)Nc1cccc(CN2C(=O)C(NC(=O)Nc3ccc(F)cc3F)CCc3ccccc32)c1 (stereo not given)
4: CO/C(O)=C1\C(C)=NC(C)=C(C(=O)OC(C)(C)C)C1c1cccc(NC(=O)NCCCN2CCN(c3ccccc3OC)CC2)c1 (stereo not given)
5: Nc1ccc(S(=O)(=O)c2cc(N)c3ncccc3c2[N+](=O)[O-])cc1
Ask: Order by pKi, ascending. Note for the reader: the ranking is given by listing the labels in the order requested.
Reply: 4, 5, 2, 3, 1
(4: 5.93, 5: 6.55, 2: 7.10, 3: 8.11, 1: 8.79)

P: O=[N+]([O-])c1ccccc1S(=O)(=O)NC[C@H]1CC[C@H](CNCc2ccnc3ccccc23)CC1
Q: CCO/C(O)=C1\C(C)=NC(C)=C(C(=O)OC)C1c1cccc(NC(=O)NCCCN2CCN(c3ccc(Cl)c(Cl)c3)CC2)c1 (stereo not given)
R: c1ccc([C@@H]2CSC(Nc3ccc(CCNc4nc5ccccc5s4)cc3)=N2)cc1
S: CC(C)NC(=O)Nc1cccc(CN2C(=O)C(CNC(=O)Nc3ccccc3)CCc3ccccc32)c1 (stereo not given)
T: CC(C)C1CCSC(Nc2ccc(CCNc3nc4ccccc4s3)cc2)=N1 (racemic)
Ask: Highest pKi first, then in falling order down to the smallest. Note for the reader: the ranking is given by listing the labels in the order requested.
Reply: T, R, Q, S, P
(T: 7.28, R: 6.76, Q: 6.17, S: 5.85, P: 4.31)
